biological target: T1, human TfR extracellular domain with N-terminal His tag (human, UniProt P02786 89-760); experiment: ELISA, TfR-coated plate, IgG in culture supernatant;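 note: human or cynomolgus TfR coated at 2 µg/mL, supernatant IgG titrated in 1:5 steps for 1 h, bound antibody read with HRP anti-human Fcγ and TMB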
T1 construct: Biotinylated in some assays; also called huTfR; HuTfR
T1 sequence (P02786 89-760 G142S): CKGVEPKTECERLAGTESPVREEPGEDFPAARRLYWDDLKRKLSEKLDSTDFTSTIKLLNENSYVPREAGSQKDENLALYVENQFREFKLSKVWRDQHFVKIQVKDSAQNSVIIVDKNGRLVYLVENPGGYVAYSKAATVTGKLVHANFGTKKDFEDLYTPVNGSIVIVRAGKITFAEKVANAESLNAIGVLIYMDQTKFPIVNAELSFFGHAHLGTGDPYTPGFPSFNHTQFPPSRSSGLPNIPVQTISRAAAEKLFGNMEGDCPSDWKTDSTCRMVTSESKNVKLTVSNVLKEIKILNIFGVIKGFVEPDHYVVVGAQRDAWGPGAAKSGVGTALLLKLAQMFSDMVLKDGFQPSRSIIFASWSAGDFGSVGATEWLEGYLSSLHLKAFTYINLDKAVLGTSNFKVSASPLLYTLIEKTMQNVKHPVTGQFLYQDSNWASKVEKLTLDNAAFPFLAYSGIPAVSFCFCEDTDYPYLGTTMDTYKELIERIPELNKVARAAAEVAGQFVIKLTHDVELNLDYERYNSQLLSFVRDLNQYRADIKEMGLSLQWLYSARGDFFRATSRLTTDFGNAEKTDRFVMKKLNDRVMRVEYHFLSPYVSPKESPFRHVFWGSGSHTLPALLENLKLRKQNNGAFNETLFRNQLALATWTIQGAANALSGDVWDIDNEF
Exercise: state measured EC50 for each of the binders provided.
Write down the numeric answer in ng/mL and omit the unit.

Q: Read off the recorded EC50 for hu15G11.v5 IgG Ala variant N32A (HVR-L1) (antibody, V domains shown, IgG in cell culture supernatant) VH: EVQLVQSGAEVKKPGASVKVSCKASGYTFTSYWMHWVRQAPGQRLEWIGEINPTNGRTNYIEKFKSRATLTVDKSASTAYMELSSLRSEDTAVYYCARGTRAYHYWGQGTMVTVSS VL: DIQMTQSPSSLSASVGDRVTITCRASDNLYSALAWYQQKPGKSPKLLVYDATNLADGVPSRFSGSGSGTDYTLTISSLQPEDFATYYCQHFWGTPLTFGQGTKVEIK
Result: 1.6

Q: Please list EC50 recorded for the binder hu15G11.v5 IgG Ala variant D27A (HVR-L1) (antibody, V domains shown, IgG in cell culture supernatant) VH: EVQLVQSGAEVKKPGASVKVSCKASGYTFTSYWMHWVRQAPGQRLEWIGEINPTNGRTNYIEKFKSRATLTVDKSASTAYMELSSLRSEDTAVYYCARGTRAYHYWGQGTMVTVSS VL: DIQMTQSPSSLSASVGDRVTITCRASANLYSNLAWYQQKPGKSPKLLVYDATNLADGVPSRFSGSGSGTDYTLTISSLQPEDFATYYCQHFWGTPLTFGQGTKVEIK
Result: 0.2

Q: Specify reported EC50 for the binder shown: hu15G11.v5 IgG Ala variant S26A (HVR-L1) (antibody, V domains shown, IgG in cell culture supernatant) VH: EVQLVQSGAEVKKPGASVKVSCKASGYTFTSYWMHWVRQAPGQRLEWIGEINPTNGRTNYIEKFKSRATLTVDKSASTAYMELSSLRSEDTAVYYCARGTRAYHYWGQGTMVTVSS VL: DIQMTQSPSSLSASVGDRVTITCRAADNLYSNLAWYQQKPGKSPKLLVYDATNLADGVPSRFSGSGSGTDYTLTISSLQPEDFATYYCQHFWGTPLTFGQGTKVEIK
Result: 0.2
